Values were extracted from PubChem BioAssay (NCI).

# Tested on: SN12C renal
# ASSAY_TEXT: NCI-60 one-dose screen, 48 h (100 = growth as untreated, 0 = no growth, -100 = all killed)
# ASSAY_CONTEXT: 10 µM unless noted
This is part of a sample that, as a whole, favours compounds with a hit. Of some 83,000 tested, about 20% had one in any assay.
PROPERTY_MEASURED: growth (%)
Response body: numeric value in %, unit text excluded.

See these solved cases before continuing.
O=S(=O)(Nc1cc(Cl)cc(Cl)c1)c1ccc(-c2cnc(C3CC3)o2)cc1 : 50.6
COc1ccc(-c2cc(-c3ccc(Cl)cc3)nc3nc(N)nn23)cc1 : 97.6
COc1ccc([C@H]2c3[nH]c4ccccc4c3C[C@@H]3C(=O)N(C4CCN(Cc5ccccc5)CC4)CC(=O)N23)c(OC)c1 : 75.6
COc1ccc(/C=N/Nc2nc(Nc3ccccc3)nc(Nc3ccc(S(N)(=O)=O)cc3)n2)cc1 : 80.2
CCc1ccc(NC(=O)N[C@@H](Cc2cccc(F)c2)C(=O)N[C@@H]2C(=O)N3CCC[C@H]3C(=O)N3CCCC[C@H]3C(=O)N[C@@H](C)C(=O)N3C[C@H](C)C[C@H]3C(=O)O[C@H]2C)c(F)c1 : 21
C/C(=N\NC(=O)CSc1nc2sc3c(c2c(=O)n1-c1ccccc1)CCC(C)C3)c1ccc(Cl)cc1 (stereo not drawn) : 29.2
CSc1ccc(/C(=N/N=C(N)N)c2ccccc2)cc1 : 27.9

# input for lookup
Problem: State recorded growth with SN12C renal, entry `COc1cc(/C=N/n2cnc3oc(-c4ccccc4)cc3c2=N)cc(CN2CCOCC2)c1O` , no comment.
Result: 72.4

----------
# Tested on: SK-MEL-2 melanoma
# ASSAY_TEXT: NCI-60 one-dose screen, 48 h (100 = growth as untreated, 0 = no growth, -100 = all killed)
# ASSAY_CONTEXT: 10 µM unless noted
Compounds without any hit were thinned out: in the full panel of roughly 83,000, 20% have a hit.
Reported values of growth for individual entries
Response body: numeric value in %, unit text excluded.

See these solved cases before continuing.
O=C1c2c(c3c4cccnc4[nH]c3c3ccc4ccccc4c23)C(=O)N1CCN1CCNCC1 : 113
COc1ccc(CN2C(=O)/C(=C/c3nc(CO)cs3)SC2=S)cc1 : 98.2
C#C[C@]1(O)CC[C@H]2[C@@H]3CC=C4c5sc(C6CCOCC6)nc5CC[C@]4(C)[C@H]3CC[C@@]21C : 94.6
CCC(=O)Nc1cc(Nc2cc(NC3CC3)n3ncc(C#N)c3n2)ccc1C : 32.6

# input for lookup
Problem: For the compound COc1cc(C2CC(c3ccc(Nc4nc(NCCO)nc(Nc5ccc(Cl)cc5)n4)cc3)=Nc3c(N)nc(N)nc3N2)cc(OC)c1OC (stereo not given) , give its reported growth.
Result: 75.9

----------
# Test system: MALME-3M melanoma
# ASSAY_TEXT: NCI-60 one-dose screen, 48 h (100 = growth as untreated, 0 = no growth, -100 = all killed)
# ASSAY_CONTEXT: 10 µM unless noted
# Description: Cells are grown in 96 well plates and exposed to the test compound for 48 hours. Compounds are tested at a single concentration, which is 10^-5 M for most compounds. The reported endpoint is percent growth (GI% or GIPRCNT), where numbers from 0 - 100% represent growth inhibition, and numbers from -100% - 0 represent cell death. For example, a value of 40 represents 60% growth inhibition. A value of 0 means no net growth occurred over the course of the experiment. […]
Compounds without any hit were thinned out: in the full panel of roughly 83,000, 20% have a hit.
Rule: growth below 70% gives y, anything at or above gives n.

O=C(Nc1cc(F)cc2cccnc12)c1cnc(N2CCOCC2)cn1 : y

Problem: A record lists `COc1ccc(-c2nc(SCC(C)C)nc(N/N=C\c3cccc([N+](=O)[O-])c3)c2C#N)cc1` . Is its growth below 70%?
Result: y

Problem: A record lists `CCN(CC)CCN1C(=O)c2c(c3c4cccnc4[nH]c3c3ccc4ccccc4c23)C1=O` . Is its growth below 70%?
Result: n

Problem: A record lists `O=C(NCCCNc1cc(-c2cn(-c3ccccc3)nc2-c2cccc(O)c2)ccn1)Nc1cc(C(F)(F)F)cc(C(F)(F)F)c1` . Is its growth below 70%?
Result: y

Problem: A record lists CCOC(=O)C1=C(C)N=C2Sc3ccccc3N2C1c1ccccc1 (stereo not given) . Is its growth below 70%?
Result: n

----------
# Test system: COLO 205 colon
# ASSAY_TEXT: NCI-60 one-dose screen, 48 h (100 = growth as untreated, 0 = no growth, -100 = all killed)
# ASSAY_CONTEXT: 10 µM unless noted
This is part of a sample that, as a whole, favours compounds with a hit. Of some 83,000 tested, about 20% had one in any assay.
Classification by growth follows these ranges: bin 0 (below 30%), bin 1 (30% to below 90%), bin 2 (90% or more)

Example cases with answers are listed next.
Cc1cc(O)c2c(c1)C(=O)C(c1c(C)cc3c(c1O)C(=O)C=CC3=O)=CC2=O : bin 0
O=C(NNc1nc2cc(F)c(F)cc2n2cccc12)c1ncccn1 : bin 0
COc1ccc(/C(C)=C(\c2ccc(Cl)cc2)c2ccc(OCCN)cc2)cc1 : bin 1
O=C1c2cc(Br)ccc2-n2c1nc1cc(Br)ccc1c2=O : bin 1
C#CCOc1ccc(/C=N/Nc2nc(-c3cc4cc(Br)cc(Br)c4oc3=O)cs2)cc1 : bin 2
Oc1ccc(CSc2nnc(-c3ccc(Cl)cc3)o2)c2cccnc12 : bin 2

Problem: # bin lookup: classify `Cc1cc(=O)n2nc(-c3cn(C)c4ccc(Cl)cc34)sc2n1` by its growth
Result: bin 2

Problem: # bin lookup: classify `C#C[C@]1(O)CC[C@H]2[C@@H]3CC=C4c5sc(Nc6ccncc6)nc5CC[C@]4(C)[C@H]3CC[C@@]21C` by its growth
Result: bin 0

Problem: # bin lookup: classify `N/C(=N\OC(=O)CSc1nc2ccccc2s1)c1ccc(Cl)cc1` by its growth
Result: bin 2

----------
Reported values of growth for individual entries
# Test system: OVCAR-4 ovarian
# ASSAY_TEXT: NCI-60 one-dose screen, 48 h (100 = growth as untreated, 0 = no growth, -100 = all killed)
# ASSAY_CONTEXT: 10 µM unless noted
About 83,000 compounds went through this panel and 20% of them were active in at least one assay; those are over-represented in the sample as a whole.
Response body: numeric value in %, unit text excluded.

Cc1nn(-c2ccccc2)c2nc(CCl)[nH]c(=O)c12 : 110
Cn1cc(-c2nn3cc(-c4ccncc4)nc3s2)c2cc(Cl)ccc21 : 78.6
CCOC(=O)c1c(NC(=O)c2ccc(C(C)(C)C)cc2)sc2cc(OCCN3CCCCC3)ccc12 : 102
Cc1ccc(NC(=O)c2ccc(CN3CCN(C)CC3)c(C(F)(F)F)c2)cc1Oc1ccc(-c2[nH]nc3ncnc(N)c23)cc1 : 90.7

Problem: For the compound `CC1(C)CC[C@]2(C(=O)N3CCCN(CC#N)CC3)CC[C@]3(C)C(=CC[C@@H]4[C@@]5(C)CC[C@H](O)C(C)(C)[C@@H]5CC[C@]43C)[C@H]2C1` , give its reported growth.
Result: 86.7

----------
# Tested on: NCI-H322M lung
# ASSAY_TEXT: NCI-60 one-dose screen, 48 h
# ASSAY_CONTEXT: 10 µM unless noted
Compounds without any hit were thinned out: in the full panel of roughly 83,000, 20% have a hit. The source made the active and inactive calls. Rule for the calls: active = growth percent below 10; inactive = the rest.
Allowed answers: active, inactive

Example cases with answers are listed next.
CCCC(=O)NC(c1cccnc1)c1ccc2c(C)ccnc2c1O (stereo not drawn) : inactive
C#C[C@]1(O)CC[C@H]2[C@@H]3CC=C4c5sc(-c6ccc(OC)cc6)nc5CC[C@]4(C)[C@H]3CC[C@@]21C : inactive
CN1C(=O)N(C)C2C1NN=c1s/c(=C\c3ccccn3)c(=O)n12 (stereo not drawn) : inactive
C=CCn1c(SCC(=O)Nc2cccc(C(=O)/C=C/c3ccc(OC)c(OC)c3)c2)nc2ccccc2c1=O : inactive
C=CCn1c(SCC(=O)Nc2cccc(C(=O)/C=C/c3ccccc3Cl)c2)nc2ccccc2c1=O : inactive
Nc1nc(-c2cccc([N+](=O)[O-])c2)c(N=Nc2ccccc2Cl)s1 : inactive
CCOC(=O)c1nn(-c2ccc(C)cc2)c(=O)c2c(N)c(C#N)c(-c3ccc(OC)cc3)cc12 : inactive
CCN1CCN(Cc2ccc(C(=O)Nc3nc4ccc(Oc5ccnc(C(=O)NC)c5)cc4s3)cc2C(F)(F)F)CC1 : inactive
O=C(CSc1ccc(-c2nc3ccccc3[nH]2)cn1)N1CCN(c2ccccc2F)CC1 : inactive
c1ccc(-c2n(Cc3ccc4ccccc4c3)c3c4ccccc4c4ccccc4c3[n+]2Cc2ccc3ccccc3c2)cc1 : active

Problem: Assay result, entry `NC(=O)c1c(NC(=O)c2cccc(OC(F)(F)F)c2)sc2c1CCC(=O)C2` — outcome?
Result: inactive

Problem: Assay result, entry `COc1ccc(-c2ccc3c4c(cccc24)C(=O)N(N2C(=O)c4cccc5cccc(c45)C2=O)C3=O)cc1` — outcome?
Result: inactive

Problem: Assay result, entry `C=C(C)[C@@H]1CC[C@]2(C(=O)ON)CC[C@]3(C)[C@H](CC[C@@H]4[C@@]5(C)C/C(=C/c6ccc(Br)cc6)C(=O)C(C)(C)[C@@H]5CC[C@]43C)[C@@H]12` — outcome?
Result: inactive

Problem: Assay result, entry `CC(=O)Nc1ccc(C)c(Nc2cc(-c3ccc(-n4cccn4)cc3)[nH]n2)c1` — outcome?
Result: inactive

Problem: Assay result, entry `N#Cc1c(-c2ccccc2)cc(-c2c[nH]c3ccccc23)nc1-c1c[nH]c2ccccc12` — outcome?
Result: inactive

Problem: Assay result, entry `COc1ccc2c(c1)c(-c1nn3c(=O)cc(-c4ccccc4)nc3s1)cn2C` — outcome?
Result: inactive

Problem: Assay result, entry `O=C1Nc2ccc(Cl)cc2/C1=C/c1ccc(OCc2ccc(Br)cc2F)cc1` — outcome?
Result: inactive

Problem: Assay result, entry CS(=O)c1nccc(-c2c(-c3ccc(F)c(OCCc4ccc(F)cc4)c3)nc3sccn23)n1 (stereo not drawn) — outcome?
Result: inactive
